Numbers sourced from patent US11420984B2.

- experimental.details: Bioavailability / pharmacokinetic study in male rats (IV and PO)
- Type: in vivo, rat
- condition: plasma; pro-drug itself, observed when dosed as pro-drug; male rat, IV 2 mg/kg; read-out: Vdss
Answer not met if Vd is under 0.5 L/kg, and met if it is 0.5 L/kg or more.

Before answering, review these 3 worked examples.
smiles_notation=CC(C)C[C@H](N)C(=O)N[C@H]1CN[C@@](CCCCB(O)O)(C(=O)O)C1 label_value=met
smiles_notation=CC(C)(O)[C@H](N)C(=O)N[C@H]1CN[C@@](CCCCB(O)O)(C(=O)O)C1 label_value="not met"
smiles_notation=CC(C)[C@H](N)C(=O)N[C@H]1CN[C@]2(CCCCB(O)OC2=O)C1 label_value="not met"

Prompt line: # bool: Vd of CC[C@H](C)[C@H](N)C(=O)N[C@H]1CN[C@@](CCCCB(O)O)(C(=O)O)C1 >= 0.5 L/kg
Response line: not met

Prompt line: # bool: Vd of COC[C@H](N)C(=O)N[C@H]1CN[C@@](CCCCB(O)O)(C(=O)O)C1 >= 0.5 L/kg
Response line: met

Prompt line: # bool: Vd of N[C@@H](CO)C(=O)N[C@H]1CN[C@@](CCCCB(O)O)(C(=O)O)C1 >= 0.5 L/kg
Response line: not met

Prompt line: # bool: Vd of CC(C)[C@H](N)C(=O)N[C@H]1CN[C@@](CCCCB(O)O)(C(=O)O)C1 >= 0.5 L/kg
Response line: not met

Prompt line: # bool: Vd of NCC(=O)N[C@H]1CN[C@@](CCCCB(O)O)(C(=O)O)C1 >= 0.5 L/kg
Response line: not met

---

So I've got a bunch of molecules here, and I need their pIC50 values.
- assay.target: Human Arginase 1 (Homo sapiens (Human))
- Sequence (P05089 whole entry): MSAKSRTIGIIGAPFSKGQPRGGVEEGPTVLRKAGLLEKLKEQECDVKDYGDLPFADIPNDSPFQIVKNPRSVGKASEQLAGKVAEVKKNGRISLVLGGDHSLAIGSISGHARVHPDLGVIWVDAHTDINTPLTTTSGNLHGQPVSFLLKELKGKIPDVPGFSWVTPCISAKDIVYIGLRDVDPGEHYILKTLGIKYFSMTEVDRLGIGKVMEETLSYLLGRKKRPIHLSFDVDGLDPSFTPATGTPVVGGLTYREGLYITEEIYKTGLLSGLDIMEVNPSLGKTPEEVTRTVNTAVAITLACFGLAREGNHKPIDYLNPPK
- experimental.details: Human Arginase 1 enzyme inhibition (thioarginine/DTNB absorbance assay)
- condition: recombinant enzyme 5 nM, 0.5 mM thioarginine premix, 60 min
One number for each entry, as −log10 of the molar value.

Working through the 5 molecules below one at a time, give pIC50 for each.
1. O=C(O)[C@@]1(CCCCB(O)O)C[C@H](O)CN1 [Example 2]
2. CC(C)[C@@H](N)C(=O)N[C@H]1CN[C@@](CCCCB(O)O)(C(=O)O)C1 [Example 10]
3. O=C(N[C@H]1CN[C@@](CCCCB(O)O)(C(=O)O)C1)[C@@H]1CCCN1 [Example 12]
4. CC[C@H](C)[C@H](N)C(=O)N[C@H]1CN[C@@](CCCCB(O)O)(C(=O)O)C1 [Example 15]
5. CN(C)[C@H]1CN[C@@](CCCCB(O)O)(C(=O)O)C1 [Example 25]

Response line:
4.58
5.42
6.15
6.51
4.97

Working through the 2 molecules below one at a time, give pIC50 for each.
1. CC(C)(C)[C@H](N)C(=O)N[C@H]1CN[C@@](CCCCB(O)O)(C(=O)O)C1 [Example 11]
2. CC(C)[C@H](N)C(=O)N(C)[C@H]1CN[C@@](CCCCB(O)O)(C(=O)O)C1 [Example 29]

Response line:
1. 6.68
2. 5.28

Working through the 7 molecules below one at a time, give pIC50 for each.
1. O=C(O)[C@@]1(CCCCB(O)O)C[C@@H](O)CN1 [Example 3]
2. CC(C)[C@H](N)C(=O)N(C)[C@H]1CN[C@](CCCCB(O)O)(C(=O)O)C1 [Example 30]
3. COC[C@H](N)C(=O)N[C@H]1CN[C@@](CCCCB(O)O)(C(=O)O)C1 [Example 18]
4. C[C@H](N)C(=O)N[C@H]1CN[C@@](CCCCB(O)O)(C(=O)O)C1 [Example 8]
5. CC(C)[C@H](N)C(=O)N[C@H]1CN[C@@](CCCCB(O)O)(C(=O)O)C1 [Example 9]
6. N[C@@H](CO)C(=O)N[C@H]1CN[C@@](CCCCB(O)O)(C(=O)O)C1 [Example 17]
7. CN(C)[C@H]1CN[C@](CCCCB(O)O)(C(=O)O)C1 [Example 26]

Response line:
1: 5.34; 2: 5.87; 3: 6.49; 4: 6.21; 5: 6.49; 6: 6.70; 7: 7.22

Working through the 2 molecules below one at a time, give pIC50 for each.
1. CC(C)C[C@H](N)C(=O)N[C@H]1CN[C@@](CCCCB(O)O)(C(=O)O)C1 [Example 16]
2. O=C(O)[C@@]1(CCCCB(O)O)CCCN1 [Example 1]

Response line:
1. 6.51
2. 4.83

Working through the 2 molecules below one at a time, give pIC50 for each.
1. CC[C@H](N)C(=O)N[C@H]1CN[C@@](CCCCB(O)O)(C(=O)O)C1 [Example 14]
2. CN[C@H]1CN[C@@](CCCCB(O)O)(C(=O)O)C1 [Example 23]

Response line:
1. 6.59
2. 5.94
